Where do these numbers come from? They come from patent US6608086B2.

target: α2B receptor (Homo sapiens, UniProt P18089); construct: host or cells: LM(tk-) cells, line L-NGC-α2B; test: Competition binding, [3H]rauwolscine, human α2B receptor; details: pKi alpha-2 2b, [3H]rauwolscine, LM(tk-) cell line L-NGC-α2B; SEM and n in lines below
Sequence (P18089 whole entry): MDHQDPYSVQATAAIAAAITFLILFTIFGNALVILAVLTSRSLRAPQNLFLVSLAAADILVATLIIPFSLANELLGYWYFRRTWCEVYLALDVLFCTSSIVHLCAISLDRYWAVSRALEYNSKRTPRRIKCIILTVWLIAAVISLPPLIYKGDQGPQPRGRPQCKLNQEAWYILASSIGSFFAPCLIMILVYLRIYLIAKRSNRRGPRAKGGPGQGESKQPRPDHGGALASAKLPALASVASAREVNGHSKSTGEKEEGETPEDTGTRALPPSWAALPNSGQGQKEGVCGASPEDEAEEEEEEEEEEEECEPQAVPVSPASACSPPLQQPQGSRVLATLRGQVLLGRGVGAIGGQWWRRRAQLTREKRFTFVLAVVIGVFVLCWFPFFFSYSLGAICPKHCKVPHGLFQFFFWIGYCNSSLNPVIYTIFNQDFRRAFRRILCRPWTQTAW
pKi: −log10 of the molar value. Structures can show the parent of a compound that is named as a salt.
# cutoff 6 applies to pKi; >= gives criterion met, < gives criterion not met

Reference set, count: 2
>  <Compound>
COC(=O)C1=C(C)NC(c2ccoc2)=C(C(=O)NCCCN2CCC(c3ccccc3)(c3ccccc3)CC2)C1c1ccc([N+](=O)[O-])cc1 (stereo not drawn) [Example 43, hydrochloride salt]

>  <Group>
criterion met

$$$$
>  <Compound>
COC(=O)C1=C(C)NC(C)=C(C(=O)NCCCN2CCC(c3ccccc3)(c3ccccc3)CC2)C1c1cc[n+]([O-])cc1 (stereo not drawn) [Example 9]

>  <Group>
criterion met

$$$$

Request: pKi >= 6 for COC(=O)C1=C(C)NC(C)=C(C(=O)NCCCN2CCC(c3ccccc3)(c3ccccc3)CC2)C1Cc1ccccc1 (stereo not drawn) [Example 8] ?
Result: criterion not met

Request: Same read-out for CC1=C(C(N)=O)C(c2ccc([N+](=O)[O-])cc2)C(C(=O)NCCN2CCC(c3ccccc3)(c3ccccc3)CC2)=C(C)N1 (stereo not drawn) [Example 54, hydrochloride hydrate] ?
Result: criterion met

Request: Same read-out for CC1=C(C(=O)NCCCN2CCC(c3ccccc3)(c3ccccc3)CC2)C(c2ccc([N+](=O)[O-])cc2)C2=C(CCCC2=O)N1 (stereo not drawn) [Example 40] ?
Result: criterion not met
